Test system: Poa annua (POAAN)
protocol-details: Herbicidal post-emergence action (B), 1280 g/ha
Type: in vivo
run-parameters: rated visually after about 3 weeks vs untreated controls
measured-property: herbicidal activity POAAN (%)
State just the number; it will be interpreted in %.

Q: Query (compound): Fc1ccccc1-c1nc2ncsc2cc1C1CC1 ; field requested: herbicidal activity POAAN
Result: 90

Q: // repeat for CCc1cc2scnc2nc1-c1ccccc1OC and report
Result: 100

Q: // repeat for CCc1cc2scnc2nc1-c1ccccc1F and report
Result: 100

Q: // repeat for Cc1ccsc1-c1nc2ncsc2cc1Cl and report
Result: 90

Q: // repeat for Cc1cc2scnc2nc1-c1ccc(F)cc1F and report
Result: 100

Q: // repeat for Cc1cc2scnc2nc1-c1ccccc1Cl and report
Result: 100

Q: // repeat for Fc1ccccc1-c1nc2ncsc2cc1Cl and report
Result: 100

----------
Tested on: Setaria viridis (SETVI)
protocol-details: Herbicidal post-emergence action (B), 1280 g/ha
Type: in vivo
run-parameters: rated visually after about 3 weeks vs untreated controls
Consider the following compounds and their measured herbicidal activity SETVI readings.
Remember to follow the number with its unit.

smiles_notation=Cc1ccccc1-c1ccc2scnc2n1 assayed_system="Setaria viridis (SETVI)" measured_property="herbicidal activity SETVI" reported_value=90%

Q: Query (compound): CCc1cc2sc(OC)nc2nc1-c1ccccc1C ; field requested: herbicidal activity SETVI
Result: 100%

----------
Consider the following compounds and their measured herbicidal activity AMARE readings.
Tested on: Amaranthus retroflexus (AMARE)
protocol-details: Herbicidal post-emergence action (B), 1280 g/ha
Format: in vivo
run-parameters: rated visually after about 3 weeks vs untreated controls
State just the number; it will be interpreted in %.

compound=COc1nc2nc(-c3ccccc3)c(C)cc2s1 measured_property="herbicidal activity AMARE" reported_value=90
compound=Cc1cc2sc(S)nc2nc1-c1ccccc1F measured_property="herbicidal activity AMARE" reported_value=100

Q: Query (compound): Cc1cc2scnc2nc1-c1ccsc1C ; field requested: herbicidal activity AMARE
Result: 100

Q: // repeat for CCc1cc2scnc2nc1C12CCCCC1O2 (stereo not drawn) and report
Result: 100

Q: // repeat for Cc1cc2sc([S+](C)[O-])nc2nc1-c1ccccc1F (stereo not drawn) and report
Result: 90

Q: // repeat for COc1ccccc1-c1nc2ncsc2cc1C and report
Result: 90

Q: // repeat for Fc1cccc(-c2nc3ncsc3cc2Cl)c1F and report
Result: 90

Q: // repeat for Cc1cc2scnc2nc1-c1ccccc1Cl and report
Result: 90

Q: // repeat for Fc1cccc(-c2nc3ncsc3cc2Cl)c1 and report
Result: 90

Q: // repeat for Cc1cc2sc(S(C)(=O)=O)nc2nc1-c1ccccc1F and report
Result: 90

----------
Consider the following compounds and their measured herbicidal effect VERPE readings.
Test system: Veronica persica (VERPE)
protocol-details: Herbicidal pre-emergence action (A), 1280 g/ha
Format: in vivo
run-parameters: visual grading after ca. 3 weeks vs untreated controls

smiles_notation=CCc1cc2scnc2nc1-c1ccccc1OC assayed_system="Veronica persica (VERPE)" measured_property="herbicidal effect VERPE" reported_value=90%
smiles_notation=c1ccc(-c2ccc3scnc3n2)cc1 assayed_system="Veronica persica (VERPE)" measured_property="herbicidal effect VERPE" reported_value=90%
smiles_notation=Fc1cccc(-c2nc3ncsc3cc2Cl)c1 assayed_system="Veronica persica (VERPE)" measured_property="herbicidal effect VERPE" reported_value=90%
smiles_notation=Fc1cc(F)c(-c2nc3ncsc3cc2Cl)c(F)c1 assayed_system="Veronica persica (VERPE)" measured_property="herbicidal effect VERPE" reported_value=90%
smiles_notation=Fc1ccccc1-c1nc2ncsc2cc1C1CC1 assayed_system="Veronica persica (VERPE)" measured_property="herbicidal effect VERPE" reported_value=100%

Q: Query (compound): Cc1sccc1-c1ccc2scnc2n1 ; field requested: herbicidal effect VERPE
Result: 90%

Q: // repeat for Cc1cc2scnc2nc1-c1ccccc1 and report
Result: 100%

Q: // repeat for Cc1cc2scnc2nc1-c1sccc1C and report
Result: 100%

Q: // repeat for CCc1cc2scnc2nc1-c1cccc(F)c1 and report
Result: 90%

Q: // repeat for CCCc1cc2scnc2nc1-c1ccccc1F and report
Result: 90%

Q: // repeat for Cc1ccsc1-c1nc2ncsc2cc1Cl and report
Result: 90%
